molecular target: TNF-α converting enzyme (TACE) (Homo sapiens, UniProt P78536); assay: TACE inhibition (fluorescent peptidyl substrate); type: biochemical; details: IC 50 nM (In Vitro Inhibition of TACE), Table 15
Sequence (P78536 215-824, species assumed): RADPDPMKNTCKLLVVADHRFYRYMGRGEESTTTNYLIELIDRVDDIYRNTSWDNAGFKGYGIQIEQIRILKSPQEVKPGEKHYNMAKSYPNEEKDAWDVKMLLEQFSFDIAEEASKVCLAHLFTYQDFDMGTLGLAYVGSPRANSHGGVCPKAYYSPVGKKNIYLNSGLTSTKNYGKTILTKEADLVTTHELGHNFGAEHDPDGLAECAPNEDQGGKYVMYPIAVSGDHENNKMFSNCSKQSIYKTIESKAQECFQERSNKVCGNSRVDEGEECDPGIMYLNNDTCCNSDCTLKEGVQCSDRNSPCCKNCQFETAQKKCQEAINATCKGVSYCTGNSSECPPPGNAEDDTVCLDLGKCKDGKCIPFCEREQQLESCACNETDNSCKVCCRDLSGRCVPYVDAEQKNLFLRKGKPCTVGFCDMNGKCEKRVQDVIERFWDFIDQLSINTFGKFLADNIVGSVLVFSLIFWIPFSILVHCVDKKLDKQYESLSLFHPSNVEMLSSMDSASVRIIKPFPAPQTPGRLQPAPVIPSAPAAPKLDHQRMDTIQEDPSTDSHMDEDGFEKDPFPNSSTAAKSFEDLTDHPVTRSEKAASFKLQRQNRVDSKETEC
REPORTED_METRIC: IC50 (nM)

{"COMPOUND": "CC#CCOc1ccc(S(=O)(=O)N[C@H](CCCNC(=O)Cc2ccccc2)C(=O)NO)cc1 [Example 345]", "IC50, nM": 4.43}

I = CC#CCOc1ccc(S(=O)(=O)N[C@H](CCCCNC(=O)c2sccc2Cl)C(=O)NO)cc1 [Example 352]
II = CC#CCOc1ccc(S(=O)(=O)N2CCC[C@@H]2C(=O)NO)cc1 [Example 82]
Compare the recorded IC50 of I and II ; state which is larger. Give the label under which the chosen entry appears. II

a = CC#CCOc1ccc(S(=O)(=O)N[C@@H](C(=O)NO)c2ccccc2)cc1 [Example 327]
b = CC#CCOc1ccc(S(=O)(=O)N[C@H](CCCNC(=O)c2c(C)noc2C)C(=O)NO)cc1 [Example 338]
Input pair: a , b . Output: entry with lower IC50. Give the label under which the chosen entry appears. b
(b: 3.73 nM, a: 5.5 nM)

1 = CC#CCOc1ccc(S(=O)(=O)N[C@H](Cc2cccs2)C(=O)NO)cc1 [Example 321]
2 = CC#CCOc1ccc(S(=O)(=O)N[C@H](Cc2cccc3ccccc23)C(=O)NO)cc1 [Example 310]
3 = CC#CCOc1ccc(S(=O)(=O)N[C@H](CCCNC(=O)NCC)C(=O)NO)cc1 [Example 369]
Sort these compounds on IC50 so the largest reading comes first. Answer format: the labels, in the requested order. 2, 3, 1
(2: 27.9 nM, 3: 14.2 nM, 1: 4.7 nM)

###

Biological target: MMP-1 (Homo sapiens, UniProt P03956)
Sequence (P03956 100-469): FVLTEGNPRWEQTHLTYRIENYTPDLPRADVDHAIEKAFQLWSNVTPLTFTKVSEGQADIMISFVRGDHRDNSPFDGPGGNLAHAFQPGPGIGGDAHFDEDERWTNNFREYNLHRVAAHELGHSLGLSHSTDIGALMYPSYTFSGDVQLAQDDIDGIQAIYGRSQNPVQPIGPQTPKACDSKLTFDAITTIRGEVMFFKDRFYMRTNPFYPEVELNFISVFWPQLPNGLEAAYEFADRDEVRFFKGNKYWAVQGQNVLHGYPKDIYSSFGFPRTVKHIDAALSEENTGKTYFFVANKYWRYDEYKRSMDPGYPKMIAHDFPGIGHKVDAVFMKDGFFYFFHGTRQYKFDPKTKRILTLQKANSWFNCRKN
Experiment: MMP-1 inhibition (thiopeptide or fluorescent peptide substrate)
Type: biochemical
Settings: Table 11; read-out: MMP-1 IC50
pIC50: −log10 of the molar value. Structures can show the parent of a compound that is named as a salt.
REPORTED_METRIC: pIC50

{"MOLECULE": "CC#CCOc1ccc(S(=O)(=O)N2C[C@H](CC(N)=O)SC(C)(C)[C@@H]2C(=O)NO)cc1", "REPORTED_METRIC": "pIC50", "ASSAY_VALUE": 7.46}

I = CC#CCOc1ccc(S(=O)(=O)N2C[C@H](CC(=O)NCCN(C)C)SC(C)(C)[C@@H]2C(=O)NO)cc1
II = CC#CCOc1ccc(S(=O)(=O)N2C=CSC(C)(C)[C@@H]2C(=O)NO)cc1
Input pair: I , II . Output: entry with lower pIC50. Give the label under which the chosen entry appears. II
(II: 6.50, I: 7.51)

1 = CC#CCOc1ccc(S(=O)(=O)N2[C@@H](C(=O)NO)C(C)(C)SC[C@@H]2C)cc1
2 = CC#CCOc1ccc(S(=O)(=O)N2C[C@H](CC(=O)O)SC(C)(C)[C@@H]2C(=O)NO)cc1
Compare the recorded pIC50 of 1 and 2 ; state which is larger. Give the label under which the chosen entry appears. 2
(2: 7.77, 1: 7.49)

I = CC#CCOc1ccc(S(=O)(=O)N2C[C@H](CN)SC(C)(C)[C@@H]2C(=O)NO)cc1 [Example 276, Hydrochloride]
II = CC#CCOc1ccc(S(=O)(=O)N2C[C@H](CC(=O)N(C)C)SC(C)(C)[C@@H]2C(=O)NO)cc1
III = CC#CCOc1ccc(S(=O)(=O)N2C[C@H](C)SC(C)(C)[C@@H]2C(=O)NO)cc1
Sort these molecules on pIC50 so the largest reading comes first. Answer format: the labels, in the requested order. III, I, II

I = CC#CCOc1ccc(S(=O)(=O)N2C[C@H](CC(=O)N3CCOCC3)SC(C)(C)[C@@H]2C(=O)NO)cc1
II = CC#CCOc1ccc(S(=O)(=O)N2[C@H](C)CSC(C)(C)[C@@H]2C(=O)NO)cc1
Compare the recorded pIC50 of I and II ; state which is larger. Give the label under which the chosen entry appears. I

###

molecular target: TNF-α converting enzyme (TACE) (Homo sapiens, UniProt P78536); experiment: TACE inhibition (fluorescent peptidyl substrate); type: biochemical; conditions: read-out: TACE IC50
REPORTED_METRIC: IC50 (nM)

I = CC#CCOc1ccc(S(=O)(=O)N(C)C(C(=O)NO)c2ccc(OCCN3CCNCC3)cc2)cc1 (centres unmarked)
II = CC#CCOc1ccc(S(=O)(=O)N2CCCN(C(=O)c3ccccc3)CC2C(=O)NO)cc1 (centres unmarked)
Input pair: I , II . Output: entry with lower IC50. Give the label under which the chosen entry appears. II

###

target: TNF-α converting enzyme (TACE) (Homo sapiens, UniProt P78536); experiment: TACE inhibition (fluorescent peptidyl substrate); type: biochemical; conditions: read-out: TACE IC50
pIC50: −log10 of the molar value.
REPORTED_METRIC: pIC50

Some molecules with recorded pIC50:
{"MOLECULE": "CC#CCOc1ccc(S(=O)(=O)N2CCNCC2C(=O)NO)cc1 (centres unmarked) [Example 214]", "pIC50": 7.64}
{"MOLECULE": "CC#CCOc1ccc(S(=O)(=O)NC(CSCCCCCCCCCC/C=C\\CC)C(=O)NO)cc1 (centres unmarked) [Example 170]", "pIC50": 6.57}
{"MOLECULE": "CC#CCOc1ccc(S(=O)(=O)NC2(C(=O)NO)CCCC2)cc1 [Example 139]", "pIC50": 7.43}
{"MOLECULE": "CC#CCOc1ccc(S(=O)(=O)N(C)C(C(=O)NO)c2ccc(OCCCNC(=O)Nc3ccccc3)cc2)cc1 (centres unmarked) [Example 198]", "pIC50": 7.21}
{"MOLECULE": "C#CCOc1ccc(C(NS(=O)(=O)c2ccc(OCC#CC)cc2)C(=O)NO)cc1 (centres unmarked) [Example 177]", "pIC50": 8.32}

1 = CC#CCOc1ccc(S(=O)(=O)N(C)[C@@H](C(=O)NO)c2ccc(O[C@H]3CCNC3)cc2)cc1 [Example 190]
2 = CC#CCOc1ccc(S(=O)(=O)N(C)C(C(=O)NO)c2ccc(OCCN(C)C(=O)OC(C)(C)C)cc2)cc1 (centres unmarked) [Example 191]
Compare the recorded pIC50 of 1 and 2 ; state which is larger. Give the label under which the chosen entry appears. 1
(1: 7.49, 2: 7.19)

###

molecular target: MMP-9 (Homo sapiens); test: MMP-9 inhibition (thiopeptide or fluorescent peptide substrate); type: biochemical; settings: read-out: MMP-9 IC50
Sequence (P14780 94-707): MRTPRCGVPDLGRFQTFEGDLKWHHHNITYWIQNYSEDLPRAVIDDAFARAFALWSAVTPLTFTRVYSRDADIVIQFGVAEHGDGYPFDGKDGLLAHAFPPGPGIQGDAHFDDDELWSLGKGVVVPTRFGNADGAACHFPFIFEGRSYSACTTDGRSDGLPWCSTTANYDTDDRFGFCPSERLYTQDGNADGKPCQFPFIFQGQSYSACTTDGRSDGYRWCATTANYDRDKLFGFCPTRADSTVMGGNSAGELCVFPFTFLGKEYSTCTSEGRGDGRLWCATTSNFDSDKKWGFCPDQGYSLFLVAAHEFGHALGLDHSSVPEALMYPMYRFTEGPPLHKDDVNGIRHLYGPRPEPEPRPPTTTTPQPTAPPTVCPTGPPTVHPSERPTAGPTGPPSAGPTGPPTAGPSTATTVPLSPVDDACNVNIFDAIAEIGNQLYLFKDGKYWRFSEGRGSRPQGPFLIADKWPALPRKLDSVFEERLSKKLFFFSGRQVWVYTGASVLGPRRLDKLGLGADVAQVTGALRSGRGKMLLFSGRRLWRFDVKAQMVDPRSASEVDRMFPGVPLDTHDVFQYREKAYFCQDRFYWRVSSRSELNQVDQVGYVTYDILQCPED
REPORTED_METRIC: IC50 (nM)

a = CC#CCOc1ccc(S(=O)(=O)N(CCCCN2CCN(C)CC2)C(C(=O)NO)C(C)C)cc1 (centres unmarked) [Example 122]
b = CC#CCOc1ccc(S(=O)(=O)N(CCCN(CC)CC)C(C(=O)NO)C(C)C)cc1 (centres unmarked) [Example 118]
c = CC#CCOc1ccc(S(=O)(=O)N(C)C(C(=O)NO)c2ccc(OCCN(C)C(=O)OC(C)(C)C)cc2)cc1 (centres unmarked) [Example 191]
d = CC#CCOc1ccc(S(=O)(=O)NC(C(=O)NO)C(C)(C)SCC)cc1 (centres unmarked) [Example 159]
Sort the items above by IC50, starting with the smallest value. Answer format: the labels, in the requested order. c, b, a, d

1 = CC#CCOc1ccc(S(=O)(=O)N(C)C(C(=O)NO)C(C)(C)SC)cc1 (centres unmarked) [Example 149]
2 = CC#CCOc1ccc(S(=O)(=O)N[C@@H](C(=O)NO)C2CCC(O)CC2)cc1 (some centres unmarked) [Example 129]
3 = CC#CCOc1ccc(S(=O)(=O)N(C)[C@H](CSC)C(=O)NO)cc1 [Example 154]
// ascending sort on recorded IC50 Answer format: the labels, in the requested order. 1, 3, 2

###

target: MMP-13 (Homo sapiens, UniProt P45452); test: MMP-13 inhibition (thiopeptide or fluorescent peptide substrate); assay type: biochemical; conditions: read-out: MMP-13 IC50
REPORTED_METRIC: IC50 (µM)

Some molecules with recorded IC50:
{"MOLECULE": "CC#CCOc1ccc(S(=O)(=O)NC(C(=O)NO)C(C)(C)SCC(=O)OC(C)(C)C)cc1 (stereo not shown)", "TARGET_ENTITY": "MMP-13 (Homo sapiens, UniProt P45452)", "VALUE_UNIT": "µM", "IC50": 0.177}
{"MOLECULE": "CC#CCOc1ccc(S(=O)(=O)N(C)C(C(=O)NO)c2ccc(Cl)cc2)cc1 (stereo not shown)", "TARGET_ENTITY": "MMP-13 (Homo sapiens, UniProt P45452)", "VALUE_UNIT": "µM", "IC50": 0.036}

1 = CC#CCOc1ccc(S(=O)(=O)N[C@@H](C(=O)NO)c2ccc(OCCNC(C)=O)cc2)cc1
2 = CC#CCOc1ccc(S(=O)(=O)NC(C(=O)NO)c2ccc(OCCN3CCN(C(=O)OC(C)(C)C)CC3)cc2)cc1 (stereo not shown)
Input pair: 1 , 2 . Output: entry with lower IC50. Give the label under which the chosen entry appears. 1
(1: 0.073 µM, 2: 0.345 µM)

A = CC#CCOc1ccc(S(=O)(=O)N(C)C(C(=O)NO)c2ccc(OCCCNC(=O)OC(C)(C)C)cc2)cc1 (stereo not shown)
B = CC#CCOc1ccc(S(=O)(=O)N(CC#CCNC)C(C(=O)NO)C(C)C)cc1 (stereo not shown)
Compare the recorded IC50 of A and B ; state which is larger. Give the label under which the chosen entry appears. B
(B: 0.037 µM, A: 0.013 µM)

1 = CC#CCOc1ccc(S(=O)(=O)N(C)C(C(=O)NO)c2ccc(OCCCNC(=O)OCCCC)cc2)cc1 (stereo not shown)
2 = CC#CCOc1ccc(S(=O)(=O)N(C)C(C(=O)NO)c2ccc(OCCCN)cc2)cc1 (stereo not shown)
Compare the recorded IC50 of 1 and 2 ; state which is larger. Give the label under which the chosen entry appears. 2

1 = CC#CCOc1ccc(S(=O)(=O)N[C@@H](C(=O)NO)C(C)(C)SC)cc1
2 = CC#CCOc1ccc(S(=O)(=O)N(CC#CCN2CCN(C)CC2)C(C)C(=O)NO)cc1 (stereo not shown)
Input pair: 1 , 2 . Output: entry with lower IC50. Give the label under which the chosen entry appears. 1
